system: UACC-62; test: NCI tumour cell line growth inhibition, 48 h
Calls of active or inactive are those of the source. No stated cut-off is given here; in the data, active = GI50 up to about 1.1 µM and inactive = higher.
quantity_kind: GI50

Previously resolved entries follow.
[
  {
    "molecule": "Cc1nc2ccccc2c(=O)n1/N=C(\\N=N\\c1ccc(Cl)cc1)c1cccc(-c2ccco2)c1",
    "GI50": "22.4 µM (inactive)"
  },
  {
    "molecule": "C=C1[C@H](OCC(C)C)[C@@H](OCC(C)C)[C@@H](O)C(C)(C)/C=C/[C@H](C)C(=O)[C@@]2(O)C[C@H](C)[C@H](O)[C@@H]2[C@H]1OCC(C)C",
    "GI50": "7.19 µM (inactive)"
  },
  {
    "molecule": "O=C1c2ccccc2C(=O)c2sc(Nc3ccccc3C(F)(F)F)nc21",
    "GI50": "11.6 µM (inactive)"
  },
  {
    "molecule": "Cc1cc(O)nc(NNC(C#N)c2ccc(N(C)C)cc2)n1 (stereo not given)",
    "GI50": "> 100 µM (inactive)"
  }
]

Next, consider the following molecule.
Note to self: GI50 recorded for `O=C(O)c1cc2c(s1)C(=O)c1sccc1C2=O` was 2.08 µM (inactive)

====

tested on: BT-549; experiment: NCI tumour cell line growth inhibition, 48 h
Activity calls are given as the source filed them. Cut-off read from the data, not from the text of the source: active = GI50 up to about 1.1 µM and inactive = higher.
In this exercise, the only acceptable responses are active, inactive

Check out these entries, answers already filled in.
[
  {
    "compound": "CSc1ccc2c(c1)N(CCCN(C)C)c1ccccc1S2",
    "discrete_label": "inactive"
  },
  {
    "compound": "COc1c(O)cc2c3c(ccnc13)NC=C2",
    "discrete_label": "inactive"
  },
  {
    "compound": "O=C(NC(=S)Nc1ccc(Br)cc1)c1ccc2c(c1)Sc1ccccc1O2",
    "discrete_label": "inactive"
  },
  {
    "compound": "CN1c2ccc(O)c(O)c2-c2cc(O)cc3c2C1CCC3 (configuration not stated)",
    "discrete_label": "inactive"
  },
  {
    "compound": "COC(=O)[C@@]12CC[C@]1(C(=O)OC)C1C(C)=CC(=O)O[C@@]12C (some centres not stated)",
    "discrete_label": "inactive"
  },
  {
    "compound": "O=C(CN1C(=O)c2ccccc2C1=O)C(O)CN1C(=O)c2ccccc2C1=O (configuration not stated)",
    "discrete_label": "inactive"
  }
]

Task item: # outcome recorded in this test, key = `Clc1cc(Cl)c2cc3cccc[n+]3cc2c1Cl`
Reply: inactive

Task item: // outcome(item) with item = `COc1ccc2nc3c4c(nccc4c2c1)-c1ncccc1C3=O`
Reply: active

Task item: Assay outcome for NC1CC(=O)c2c1sc(Cl)c2Cl (configuration not stated) : what was it?
Reply: inactive

Task item: Hi, sorry to bother you, what did the test record for `N#Cc1c(NCCc2ccc(F)cc2)c2ccccc2n2c1nc1ccccc12` ?
Reply: inactive

Task item: Tell me the recorded outcome of this test for `CC(C)(C)OC(=O)N/N=C(/N)Cc1ccc(Cl)cc1` .
Reply: inactive

Task item: Please indicate how the test categorized `O=C(COC(=O)c1ccccc1)c1ccc(Br)cc1` .
Reply: inactive

====

system: SW-620; experiment: NCI tumour cell line growth inhibition, 48 h
The source made the active and inactive calls. Cut-off read from the data, not from the text of the source: active = GI50 up to about 1.1 µM and inactive = higher.
Quick reference for GI50 among some compounds

[
  {
    "compound": "CC(Br)C(=O)NN1C2=C(Nc3ccccc31)c1cccc3cccc2c13 (stereo unspecified)",
    "GI50": "> 100 µM (inactive)"
  },
  {
    "compound": "CN(/C(=N\\O)c1ccccc1)c1ccccc1",
    "GI50": "32.2 µM (inactive)"
  }
]

# GI50 of CS(=O)(=O)c1ccc(C2=C(c3ccccc3)C(=O)OC2)cc1 [ROFECOXIB] = > 100 µM (inactive)

compound `CCCCNC(=O)c1cc(S(=O)(=O)n2ccnc2O)c(SC)cc1Cl` , GI50 observed: > 100 µM (inactive)

Measured GI50, CCN(CC)CCOc1ccc(C(O)(Cc2ccc(OC)cc2)c2ccccc2)cc1 (stereo unspecified) : 17.2 µM (inactive)

GI50 measured on Fc1ccc(C2SCc3nc4ccccc4n32)cc1F (stereo unspecified) = 39.4 µM (inactive)

Lab note: `C#CC1(O)CCCCCCCCC2(CCCCCCCC1)OCCO2` gave GI50 of 18.8 µM (inactive)

Recorded GI50 (compound C/C=C/C1(NS(=O)(=O)c2ccc(C)cc2)CCC(C(C)(C)C)CC1 (stereo unspecified) ): 26.1 µM (inactive)

For record Nc1ncnc2c1ncn2C1OC(CSC(F)(F)F)C(O)C1O (stereo unspecified) the listed GI50 is > 100 µM (inactive)

The compound `O=C(COC(=O)c1ccccc1)c1ccc(Br)cc1` showed GI50 equal to 6 µM (inactive)

Reported GI50 of `O=c1c(-c2ccccc2)c(SCCN2CCOCC2)n(-c2ccccc2)c(=S)n1-c1ccccc1` : > 100 µM (inactive)

====

test system: HCC 2998; assay: NCI tumour cell line growth inhibition, 48 h
Activity calls are given as the source filed them. Rule as the data show it: active = GI50 up to about 1.1 µM and inactive = higher.
quantity_kind: GI50

Worked cases, answers included:
[
  {
    "compound": "CC(C)(C)OC(=O)N[C@H]1CC2(C=C(Cl)C(=O)C(Cl)=C2)OC1=O",
    "result": "16.6 µM (inactive)"
  },
  {
    "compound": "C=CCOC1OC(CS(=O)(=O)O)C(O)C(O)C1O (centres undefined)",
    "result": "> 100 µM (inactive)"
  },
  {
    "compound": "Nc1ccc(C(=O)NN2C(=O)C(Cl)C2c2cccc(O)c2)cc1 (centres undefined)",
    "result": "15.8 µM (inactive)"
  },
  {
    "compound": "CC(C)(CN1CCCCC1)C(=O)CC(SCCS(=O)(=O)O)c1ccc(Cl)c(Cl)c1 (centres undefined)",
    "result": "13 µM (inactive)"
  },
  {
    "compound": "CC(=O)Nc1ccc2c(c1)[nH]c(=O)c1cc(Cl)ccc12",
    "result": "38.5 µM (inactive)"
  },
  {
    "compound": "COc1cccc(C2c3cc4c(cc3OC(NNS(=O)(=O)c3ccc(C)cc3)C2C)OCO4)c1O (centres undefined)",
    "result": "31.1 µM (inactive)"
  },
  {
    "compound": "CCCNC1CC(n2cc(C)c(=O)[nH]c2=O)OC1CO (centres undefined)",
    "result": "> 100 µM (inactive)"
  },
  {
    "compound": "O=C(CSSCC(=O)OCCS(=O)(=O)Nc1ccc(Br)cc1)OCCS(=O)(=O)Nc1ccc(Br)cc1",
    "result": "7.8 µM (inactive)"
  }
]

response.value for `CC(=O)O[C@H]1C(=O)N(c2cc3c4ccccc4ccc3c3ccccc23)[C@@H]1c1ccccc1` (field: GI50) = 5.04 µM (inactive)

Input `Cc1c(N2C(=O)/C(=C/c3ccc(N(CCC#N)CCC#N)cc3)N=C2c2ccccc2)c(=O)n(-c2ccccc2)n1C` . Output GI50: > 100 µM (inactive)

For record `CCCCNS(=O)(=O)c1ccc(-c2ccc3c(c2)-c2ccc(S(=O)(=O)NCCCC)cc2S3(=O)=O)cc1` the listed GI50 is > 100 µM (inactive)

Given item `COC1(OC)CC(CO)(CNc2nc(N)nc(Cl)c2/C=N\O)C1` , the value recorded as its GI50 is > 100 µM (inactive)

Sure, the documented GI50 for CC1(C)CN(CC(=O)O)CC(Cc2ccc(OCC(=O)O)cc2)N(CC(=O)O)CC(C)(C)SS1 (centres undefined) is > 100 µM (inactive)

====

tested on: K562; experiment: NCI tumour cell line growth inhibition, 48 h
Activity calls are given as the source filed them. Cut-off read from the data, not from the text of the source: active = GI50 up to about 1.1 µM and inactive = higher.
Would you mind answering with one of these outcomes? active, inactive

[
  {
    "compound": "CCOC(=O)CCC(NC(=O)c1ccc(N2CCN(c3c(C)nc(N)nc3N)CC2)cc1)C(=O)OCC (stereo not given)",
    "measured_target": "K562",
    "discrete_label": "active"
  },
  {
    "compound": "Nc1ncnc2c1N=CN(Oc1ccccc1)N2",
    "measured_target": "K562",
    "discrete_label": "inactive"
  },
  {
    "compound": "CCCCCCCCCCCCCC(=O)O[C@H]1CC[C@H](NC(=O)[C@H](OC)[C@H](O)[C@@H](O)[C@H](O)/C=C/C(C)C)C(=O)N(C)C1 [BENGAMIDE B]",
    "measured_target": "K562",
    "discrete_label": "active"
  }
]

Task item: Test call, this compound: `COC(=O)[C@@](C)(COC(=O)C(C)(C)C)NC(=O)OC(C)(C)C`
Reply: inactive

Task item: For Nc1ncnc2c1ncn2C1OC(CSC(F)(F)F)C(O)C1O (stereo not given) , which call appears in the assay record?
Reply: inactive

Task item: Test call, this compound: `COc1ccccc1NC(=S)NNC(=O)c1cc(-c2ccccc2)nc2ccccc12`
Reply: inactive

Task item: Recorded test call requested for `C#CC1(O)CCCCCCCCC2(CCCCCCCC1)OCCO2`
Reply: inactive

Task item: Tell me the assay call for `Cc1cccc2c(=O)c3c(O)cc(O)cc3n(C)c12` please.
Reply: inactive

Task item: Please share the test call associated with COC(=O)C1=C(C(=O)OC)C23C=CC=CC24C(C(=O)OC)=C(C(=O)OC)C4C1C3 (stereo not given) .
Reply: inactive

Task item: Which outcome did this test record for the compound `Cc1cc2c(c(C(=O)O)c1C)-c1cccc(F)c1C2=O` ?
Reply: inactive
